Source of measurements: the supplement of paper PMC9112550

System: Escherichia coli TOP10
test: shrunken log2 fold change of peptide-encoding DNA abundance (4.5 h post-induction vs induction); higher = less antimicrobial activity (less host growth inhibition)
conditions.used: time post-induction: 4.5 h; library: site-saturation at positions 5, 18, 19, 20
Outcome label depends on shrunken log2 fold change relative to -0.04: at/above gives true, below gives false.

As a guide, the following entries are already answered.
biosequence: RRIRSRPPRLPRPRPRPEWAPRP
tested.target: Escherichia coli TOP10
label.class: true

biosequence: RRIRCRPPRLPRPRPRPAQFPRP
tested.target: Escherichia coli TOP10
label.class: true

biosequence: RRIRRRPPRLPRPRPRPTLQPRP
tested.target: Escherichia coli TOP10
label.class: true

biosequence: RRIRYRPPRLPRPRPRPLTQPRP
tested.target: Escherichia coli TOP10
label.class: false

Can RRIRYRPPRLPRPRPRPAGHPRP be said to have shrunken log2 fold change at or above -0.04?
true

Given RRIRIRPPRLPRPRPRPRTIPRP , state whether its shrunken log2 fold change is at least -0.04.
false

Hi, just wondering whether RRIRRRPPRLPRPRPRPHDQPRP shows shrunken log2 fold change of -0.04 or higher.
true

Check if shrunken log2 fold change >= -0.04 (inclusive). Item: RRIRQRPPRLPRPRPRPANGPRP
true

Test whether the sequence RRIRTRPPRLPRPRPRPIGSPRP records shrunken log2 fold change of -0.04 or higher.
true

Given the entry RRIRERPPRLPRPRPRPWRAPRP , answer whether its shrunken log2 fold change meets or surpasses -0.04.
true

Is reported shrunken log2 fold change greater than or equal to -0.04 here: RRIRYRPPRLPRPRPRPAHAPRP
true

---

Test system: Escherichia coli TOP10
test: shrunken log2 fold change of peptide-encoding DNA abundance (4.5 h post-induction vs induction); higher = less antimicrobial activity (less host growth inhibition)
conditions.used: time post-induction: 4.5 h; library: site-saturation at positions 5, 18, 19, 20
quantity.name: shrunken log2 fold change
# respond with the number and nothing more

Sample answers from the record:
biosequence: RRIRERPPRLPRPRPRPRLNPRP
shrunken log2 fold change: -0.156
//
biosequence: RRIRGRPPRLPRPRPRPNTDPRP
shrunken log2 fold change: 0.197
//
biosequence: RRIRKRPPRLPRPRPRPGASPRP
shrunken log2 fold change: 0.787

Per the record, RRIRCRPPRLPRPRPRPQHQPRP has shrunken log2 fold change of -0.145

response.value for RRIRQRPPRLPRPRPRPLMVPRP (field: shrunken log2 fold change) = -0.13

Looking up RRIRMRPPRLPRPRPRPIPVPRP , I found its shrunken log2 fold change recorded as 0.0294

Value of measured shrunken log2 fold change for the entry RRIRKRPPRLPRPRPRPNLKPRP : 0.286

shrunken log2 fold change reported for this sequence RRIRDRPPRLPRPRPRPTMTPRP : 0.334

---

Test system: Escherichia coli TOP10
test: shrunken log2 fold change of peptide-encoding DNA abundance (4.5 h post-induction vs induction); higher = less antimicrobial activity (less host growth inhibition)
conditions.used: time post-induction: 4.5 h; library: site-saturation at positions 5, 18, 19, 20
quantity.name: shrunken log2 fold change
Respond using a number only.

biosequence: RRIRDRPPRLPRPRPRPGSCPRP
tested.target: Escherichia coli TOP10
reported.value: 0.127

biosequence: RRIRERPPRLPRPRPRPHFRPRP
tested.target: Escherichia coli TOP10
reported.value: -0.624

biosequence: RRIRTRPPRLPRPRPRPSVPPRP
tested.target: Escherichia coli TOP10
reported.value: -0.0459

biosequence: RRIRDRPPRLPRPRPRPDMDPRP
tested.target: Escherichia coli TOP10
reported.value: 0.2

biosequence: RRIRMRPPRLPRPRPRPWFCPRP
tested.target: Escherichia coli TOP10
reported.value: -1.02

Please fill in: shrunken log2 fold change reported for RRIRKRPPRLPRPRPRPSNCPRP = -0.309

The reported shrunken log2 fold change of the sequence RRIRKRPPRLPRPRPRPNPVPRP was 0.0163

The sequence identified as RRIRGRPPRLPRPRPRPAFLPRP registered its shrunken log2 fold change at 0.367

Measured shrunken log2 fold change of RRIRWRPPRLPRPRPRPISHPRP : -0.24

In plain terms, RRIRWRPPRLPRPRPRPALPPRP has a documented shrunken log2 fold change of 0.374

---

Tested on: Escherichia coli TOP10
test: shrunken log2 fold change of peptide-encoding DNA abundance (4.5 h post-induction vs induction); higher = less antimicrobial activity (less host growth inhibition)
conditions.used: time post-induction: 4.5 h; library: site-saturation at positions 5, 18, 19, 20
Classification field: Fulfilled = shrunken log2 fold change at or over 0.08; Not fulfilled = shrunken log2 fold change under 0.08.

Check out these entries, answers already filled in.
biosequence: RRIRKRPPRLPRPRPRPMINPRP
label.class: Fulfilled
//
biosequence: RRIRHRPPRLPRPRPRPSRHPRP
label.class: Fulfilled
//
biosequence: RRIRWRPPRLPRPRPRPTWGPRP
label.class: Fulfilled
//
biosequence: RRIRNRPPRLPRPRPRPVFTPRP
label.class: Not fulfilled
//
biosequence: RRIRQRPPRLPRPRPRPLTAPRP
label.class: Not fulfilled

Could you verify whether the entry RRIRTRPPRLPRPRPRPGDFPRP shows shrunken log2 fold change of no less than 0.08?
Not fulfilled

Please tell me: is the sequence RRIRDRPPRLPRPRPRPSDDPRP at or over 0.08 in terms of shrunken log2 fold change?
Fulfilled

Decide: is the reported value of shrunken log2 fold change for RRIRERPPRLPRPRPRPEKIPRP equal to or greater than 0.08?
Not fulfilled

Decide: shrunken log2 fold change of RRIRMRPPRLPRPRPRPMYEPRP >= 0.08?
Fulfilled

Determine whether this sequence has shrunken log2 fold change no lower than 0.08: RRIRLRPPRLPRPRPRPLWNPRP
Not fulfilled

Exam item: decide whether the reported shrunken log2 fold change for RRIRLRPPRLPRPRPRPMEGPRP is at least 0.08.
Not fulfilled

---

System: Escherichia coli TOP10
test: shrunken log2 fold change of peptide-encoding DNA abundance (4.5 h post-induction vs induction); higher = less antimicrobial activity (less host growth inhibition)
conditions.used: time post-induction: 4.5 h; library: site-saturation at positions 5, 18, 19, 20
Parameter threshold = -0.03. Response is met when shrunken log2 fold change meets or exceeds it, else not met.

Recorded results for 8 sequences are shown here.
biosequence: RRIRMRPPRLPRPRPRPSVDPRP
label.class: met
//
biosequence: RRIRYRPPRLPRPRPRPYFWPRP
label.class: not met
//
biosequence: RRIRGRPPRLPRPRPRPYWRPRP
label.class: not met
//
biosequence: RRIRLRPPRLPRPRPRPAYEPRP
label.class: met
//
biosequence: RRIRIRPPRLPRPRPRPCHGPRP
label.class: not met
//
biosequence: RRIRCRPPRLPRPRPRPFNKPRP
label.class: not met
//
biosequence: RRIRTRPPRLPRPRPRPCMYPRP
label.class: not met
//
biosequence: RRIRCRPPRLPRPRPRPMNKPRP
label.class: not met

# check: shrunken log2 fold change of RRIRIRPPRLPRPRPRPAHCPRP is greater than or equal to -0.03
met

Is it the case that RRIRTRPPRLPRPRPRPEYCPRP has shrunken log2 fold change reaching or exceeding -0.03?
not met

In plain terms: is recorded shrunken log2 fold change at least -0.03 for RRIRTRPPRLPRPRPRPENWPRP ?
met

Reported shrunken log2 fold change at or above -0.03? RRIRYRPPRLPRPRPRPINCPRP
not met

Please tell me: is the sequence RRIRNRPPRLPRPRPRPRERPRP at or over -0.03 in terms of shrunken log2 fold change?
met

Does shrunken log2 fold change meet or surpass -0.03 for RRIRSRPPRLPRPRPRPLVGPRP ?
met

Is reported shrunken log2 fold change greater than or equal to -0.03 here: RRIRERPPRLPRPRPRPEMIPRP
met

---

System: Escherichia coli TOP10;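 also: peptides expressed intracellularly from a pBAD plasmid library in pooled LB shake-flask culture, induced with 0.3% L-arabinose, DNA abundance read by NGS, three biological replicates, DESeq2 with apeglm shrinkage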
test: shrunken log2 fold change of peptide-encoding DNA abundance (4.5 h post-induction vs induction); higher = less antimicrobial activity (less host growth inhibition)
conditions.used: time post-induction: 4.5 h; library: site-saturation at positions 5, 18, 19, 20
Please mark Criterion met if the recorded shrunken log2 fold change is equal to or greater than -0.1, and Criterion not met if it falls below.

biosequence: RRIRGRPPRLPRPRPRPSHMPRP
label.class: Criterion not met

biosequence: RRIRERPPRLPRPRPRPRMCPRP
label.class: Criterion met

biosequence: RRIRIRPPRLPRPRPRPEGHPRP
label.class: Criterion met

biosequence: RRIRLRPPRLPRPRPRPHQSPRP
label.class: Criterion met

biosequence: RRIRWRPPRLPRPRPRPVPEPRP
label.class: Criterion met

Entry RRIRLRPPRLPRPRPRPERCPRP : is its shrunken log2 fold change no less than -0.1?
Criterion met

Is reported shrunken log2 fold change greater than or equal to -0.1 here: RRIRQRPPRLPRPRPRPIVCPRP
Criterion not met

Does the sequence RRIRWRPPRLPRPRPRPQQYPRP have recorded shrunken log2 fold change that is -0.1 or more?
Criterion not met
